Data origin: paper PMC11459619

# targetEntity: AcTrxR-L (Acanthamoeba castellanii)
# Construct: gene ACA1_153040; recombinant selenoprotein from E. coli C321.ΔA (pABC2a, UAG as Sec codon, SECIS element); N-terminal His-SUMO removed with ULP1; homodimer with one FAD per subunit
# Sequence (L8HG59 1-526): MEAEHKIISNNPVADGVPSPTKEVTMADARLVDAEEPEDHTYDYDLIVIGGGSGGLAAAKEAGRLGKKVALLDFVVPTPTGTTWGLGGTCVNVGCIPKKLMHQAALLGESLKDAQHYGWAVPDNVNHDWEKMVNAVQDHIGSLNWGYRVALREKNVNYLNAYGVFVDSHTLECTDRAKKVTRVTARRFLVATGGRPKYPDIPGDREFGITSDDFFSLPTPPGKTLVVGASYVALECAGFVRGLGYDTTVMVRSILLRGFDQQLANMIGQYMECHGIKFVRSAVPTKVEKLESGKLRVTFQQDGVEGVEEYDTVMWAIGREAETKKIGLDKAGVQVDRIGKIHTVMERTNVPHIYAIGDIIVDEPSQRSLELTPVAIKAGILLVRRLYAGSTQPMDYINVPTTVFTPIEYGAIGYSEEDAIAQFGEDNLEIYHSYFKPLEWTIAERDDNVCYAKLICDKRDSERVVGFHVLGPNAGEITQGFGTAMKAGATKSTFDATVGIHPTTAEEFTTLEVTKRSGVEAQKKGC
# assay: DTNB reduction at 412 nm (250 μM NADPH, 1 mM DTNB, TE buffer) after preincubation of 50 nM AcTrxR-L with inhibitor, 250 μM NADPH and 0.01 mg/ml BSA for 30 min (10 min in results), diluted 5-fold and desalted to remove free inhibitor.
# Type: biochemical
# assayContext: n = 2
# Protocol: Then, the reaction was diluted 5-fold and 200 μl was desalted using Zeba™ Spin Desalting Columns and Plates, 40K MWCO (Thermo Scientific, 87767), whereupon 100 μl of the reactions, either desalted or not desalted, were transferred to each well of a 96 well plate. […] The IC50 values were determined based on the nonlinear regression (curve fit), dose-response-inhibitor equation, log (inhibitor) vs. normalized response (variable slope) using GraphPad Prism.
readoutType: IC50 (µM)
Dear colleague, please return just the value in µM, with no unit written.

>>> readoutvalue("CC[PH](CC)(CC)[Au][S][C@@H]1O[C@H](COC(C)=O)[C@@H](OC(C)=O)[C@H](OC(C)=O)[C@H]1OC(C)=O [Auranofin, auranofin (Ridaura), gold-based compound]")
0.32

We now examine a further molecule.
## Task Report IC50 from AcTrxR-L (Acanthamoeba castellanii) testing of "COc1ccc([N+](=O)[O-])c(S(=O)(=O)c2ccc(Cl)cc2)n1"
## Result 0.37
